tested on: Escherichia coli TOP10; assay: shrunken log2 fold change of peptide-encoding DNA abundance (4.5 h post-induction vs induction); higher = less antimicrobial activity (less host growth inhibition); details: time post-induction: 4.5 h; library: site-saturation at positions 5, 18, 19, 20;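 further: peptides expressed intracellularly from a pBAD plasmid library in pooled LB shake-flask culture, induced with 0.3% L-arabinose, DNA abundance read by NGS, three biological replicates, DESeq2 with apeglm shrinkage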
measured-parameter: shrunken log2 fold change
Answer with a number only.

Below, each entry is followed by its recorded shrunken log2 fold change result.
RRIRCRPPRLPRPRPRPSKDPRP | -0.361
RRIRCRPPRLPRPRPRPRRAPRP | 0.64
RRIRHRPPRLPRPRPRPELQPRP | 0.07
RRIRARPPRLPRPRPRPLFWPRP | 0.678
RRIRWRPPRLPRPRPRPYWSPRP | -0.295
RRIRWRPPRLPRPRPRPTERPRP | -0.124
RRIRQRPPRLPRPRPRPDDSPRP | -0.139
RRIRQRPPRLPRPRPRPFKMPRP | -0.217

Record summary for `RRIRTRPPRLPRPRPRPNYFPRP` : reported shrunken log2 fold change = -0.062

Record summary for `RRIRCRPPRLPRPRPRPEPGPRP` : reported shrunken log2 fold change = 0.364

Record summary for `RRIRSRPPRLPRPRPRPYSAPRP` : reported shrunken log2 fold change = -0.0105

Record summary for `RRIRVRPPRLPRPRPRPEDAPRP` : reported shrunken log2 fold change = 0.801

Record summary for `RRIRMRPPRLPRPRPRPMNIPRP` : reported shrunken log2 fold change = -0.198

Record summary for `RRIRHRPPRLPRPRPRPQHAPRP` : reported shrunken log2 fold change = 0.0729

Record summary for `RRIRYRPPRLPRPRPRPHCVPRP` : reported shrunken log2 fold change = -0.0324

Record summary for `RRIRKRPPRLPRPRPRPYCIPRP` : reported shrunken log2 fold change = -0.0175

Record summary for `RRIRVRPPRLPRPRPRPDVIPRP` : reported shrunken log2 fold change = -0.0508

Record summary for `RRIRTRPPRLPRPRPRPCYGPRP` : reported shrunken log2 fold change = -0.146

Record summary for `RRIRERPPRLPRPRPRPERCPRP` : reported shrunken log2 fold change = 0.125

Record summary for `RRIRGRPPRLPRPRPRPEPFPRP` : reported shrunken log2 fold change = 0.218

Record summary for `RRIRMRPPRLPRPRPRPLAFPRP` : reported shrunken log2 fold change = 0.52

Record summary for `RRIRWRPPRLPRPRPRPVGYPRP` : reported shrunken log2 fold change = 0.0334

Record summary for `RRIRCRPPRLPRPRPRPYKQPRP` : reported shrunken log2 fold change = -0.211

Record summary for `RRIRFRPPRLPRPRPRPSHAPRP` : reported shrunken log2 fold change = -0.149
